- target of assay: recombinant P. falciparum NMT (PfNMT) (Plasmodium falciparum, UniProt Q9U419)
- Sequence (Q9U419 whole entry): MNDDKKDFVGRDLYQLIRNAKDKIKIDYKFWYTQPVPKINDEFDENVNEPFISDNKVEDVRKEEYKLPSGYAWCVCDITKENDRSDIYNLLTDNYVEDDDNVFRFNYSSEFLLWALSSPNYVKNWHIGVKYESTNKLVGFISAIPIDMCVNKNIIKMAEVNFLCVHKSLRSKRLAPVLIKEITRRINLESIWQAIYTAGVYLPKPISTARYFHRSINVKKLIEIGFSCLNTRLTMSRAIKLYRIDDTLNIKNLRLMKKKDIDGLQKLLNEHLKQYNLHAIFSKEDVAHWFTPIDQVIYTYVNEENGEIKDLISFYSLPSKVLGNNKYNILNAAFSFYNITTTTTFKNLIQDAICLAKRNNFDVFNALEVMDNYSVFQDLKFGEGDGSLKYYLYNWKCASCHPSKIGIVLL
- assay protocol: fluorogenic 96-well plate enzymatic assay for PfNMT activity
- Assay type: biochemical
- test parameters: recombinant enzyme; mean ± SD from duplicates; Ki app from IC50 by Cheng-Prusoff; read-out: Ki app PfNMT
property: pKi
Please report pKi as the negative decimal logarithm of the molar concentration, giving only the number.

Below are worked cases with known answers.
compound	pKi
CCOC(=O)c1cnc2ccc(OCc3ccccc3)cc2c1SCC [Compound 7]	6.17
CCSc1c(C(=O)N2CCCC2)cnc2ccc(OCc3ccccc3)cc12 [Compound 15]	5.82
CCSc1c(C(=O)N(CC)CC)cnc2ccc(OCc3ccccc3)cc12 [Compound 14]	6.03

For reference, reported pKi for CCCSc1c(C(=O)OCC)cnc2ccc(OCc3ccccc3)cc12 [Compound 5] stands at 5.96

Please fill in: pKi reported for CCOC(=O)c1cnc2ccc(OCc3ccccc3)cc2c1[S+]([O-])CC (stereo not shown) [Compound 9] = 5.25

Documented pKi of CCSc1c(C(=O)NCCO)cnc2ccc(OCc3ccccc3)cc12 [Compound 18] : 5.10

For record CCOCc1cnc2ccc(OCc3ccccc3)cc2c1SCC [Compound 12] the listed pKi is 5.57

Lab note: CCOC(=O)c1cnc2ccc(OCc3ccc(NCCN)nc3)cc2c1SCC [Compound 24] gave pKi of 5.90

Noted for CCNC(=O)c1cnc2ccc(OCc3ccccc3)cc2c1SCC [Compound 13] : its pKi reads 6.02

The compound CCOC(=O)c1cnc2ccc(OCc3ccccc3)cc2c1SC [Compound 8] showed pKi equal to 5.23

# credit: paper PMC5463734
